Origin of values: ChEMBL document CHEMBL3102744

- Target Under Test: Tyrosinase (Agaricus bisporus)
- Sequence (O42713 whole entry): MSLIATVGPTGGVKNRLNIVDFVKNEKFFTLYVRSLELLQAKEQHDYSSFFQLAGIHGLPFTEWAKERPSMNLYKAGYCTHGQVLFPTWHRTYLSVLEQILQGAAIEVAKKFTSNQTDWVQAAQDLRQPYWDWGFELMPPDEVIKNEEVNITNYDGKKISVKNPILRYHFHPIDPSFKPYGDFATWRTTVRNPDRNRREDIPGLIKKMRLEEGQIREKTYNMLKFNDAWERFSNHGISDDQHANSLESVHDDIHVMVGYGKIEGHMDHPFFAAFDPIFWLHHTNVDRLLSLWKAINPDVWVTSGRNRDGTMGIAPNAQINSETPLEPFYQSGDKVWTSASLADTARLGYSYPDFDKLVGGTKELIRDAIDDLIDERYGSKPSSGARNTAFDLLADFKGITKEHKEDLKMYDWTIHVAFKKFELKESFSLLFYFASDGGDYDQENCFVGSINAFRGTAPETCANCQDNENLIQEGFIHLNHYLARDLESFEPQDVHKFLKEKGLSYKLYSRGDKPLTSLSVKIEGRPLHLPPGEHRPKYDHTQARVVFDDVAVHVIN
- Assay Protocol: Inhibition of mushroom tyrosinase using L-tyrosine as substrate preincubated for 10 mins with substrate followed by enzyme addition measured after 15 mins by spectrophotometry
List of IC50 values.
Measured Property: IC50 (µM)

* COc1ccc(CCC(=O)c2c(O)c3c(c4c2OC(C(C)(C)O)C4)OC(C)(C)C=C3)cc1 (stereo unspecified) | 1.28
* CC(C)=CCc1c2c(c(O)c3c1O[C@H](c1ccc(O)cc1O)CC3=O)C=CC(C)(C)O2 | 1.79
* COc1ccc(CCC(=O)c2c(O)c(CC=C(C)C)c3c(c2O)CC(O)C(C)(C)O3)cc1 (stereo unspecified) | 1.01
* CC(C)=CCc1c2c(c(O)c3c1O[C@H](c1ccc(O)cc1)CC3=O)C=CC(C)(C)O2 | 11.2
* COc1ccc([C@@H]2CC(=O)c3c(O)c4c(c(CC=C(C)C)c3O2)OC(C)(C)C=C4)c(O)c1 | 4.96
* COc1ccc(CCC(=O)c2ccc3c(c2O)CC(O)C(C)(C)O3)cc1 (stereo unspecified) | 18.4
